Taken from paper PMC2685089.

Biological target: Up1 (UniProt P09651-2 2-196)
Sequence (P09651 2-196): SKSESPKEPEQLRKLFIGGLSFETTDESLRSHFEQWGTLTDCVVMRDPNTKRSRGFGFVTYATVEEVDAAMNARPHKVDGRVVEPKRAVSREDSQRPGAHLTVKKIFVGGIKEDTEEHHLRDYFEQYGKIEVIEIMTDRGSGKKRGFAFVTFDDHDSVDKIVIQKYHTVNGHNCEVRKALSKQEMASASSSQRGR
Test: EMSA
pKd: −log10 of the molar value.
Measured Endpoint: pKd

Which measured pKd value corresponds to AGGGCGGTGTGGGAAGAGGGAAGAGGGGGAGG (structured_DNA) [32R] ? ~7.30
